FYI, the data here is from PubChem BioAssay (NCI).

System: NCI/ADR-RES ovarian
Assay: NCI-60 one-dose screen, 48 h
Settings: 10 µM unless noted
About 83,000 compounds went through this panel and 20% of them were active in at least one assay; those are over-represented in the sample as a whole. Activity calls are given as the source filed them. Rule for the calls: active = growth percent below 10; inactive = the rest.
Classes used: T = active, F = inactive

1. Cc1cc(Nc2ccc(OCc3ccccc3)cc2)nc2cc(O)ccc12 : F
2. CCCCCCn1c(=N)n(CC(O)COc2cccc(C)c2)c2ccccc21 (centres undefined) : T
3. COc1cccc(-c2nn(C)c3sc(C(=O)NCCN4CCN(c5ccccc5F)CC4)cc23)c1 : F
4. COc1cc(C2C(C#N)=C(N)OC3=C2C(=O)c2ccccc2C3=O)cc(OC)c1O (centres undefined) : F
5. COc1ccc(CN2CCCC(C(=O)c3ccc(C(F)(F)F)cc3)C2)c(O)c1 (centres undefined) : T
6. Nc1nc2c(ncn2[C@@H]2O[C@H](CS)[C@@H](O)[C@H]2O)c(=O)[nH]1 : F
7. COc1cc(/C=C/C(=O)c2ccc(Cl)cc2)cc(CN2CCCCC2)c1O : F
8. O=C(O)CCC(=O)c1ccc(C2CCCCCC2)cc1 : F
9. COc1cc(/C=C2\Oc3cc(OCCCN4CCCC4)ccc3C2=O)cc(OC)c1 : F
